Tested on: CEM cells HIV-1 protection, formazan growth assay
Assay: NCI AIDS Antiviral Assay;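 active = compounds giving half or more protection of infected cells from virus-caused growth loss, again on retest; inactive = the rest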
Reply using exactly one outcome from active, inactive

// known answers, use as guide
Req: Recorded test call requested for COC(=O)C1=C(C(=O)OC)C2C(C)=CC(C)=CN2C(C#N)=C(SC)S1 (stereo unspecified)
Resp: inactive

Req: Recorded test call requested for C1CCN2CC3CC(CN4CCCCC34)C2C1 (stereo unspecified)
Resp: inactive

Req: Recorded test call requested for Nc1nc(Cl)c(N)c(NCC2(CO)CCC(OCc3ccccc3)C2)n1 (stereo unspecified)
Resp: inactive

Req: Recorded test call requested for Cn1c(=O)c2[nH]c(N=Nc3c(N)n[nH]c3N)nc2n(C)c1=O
Resp: inactive

Req: Recorded test call requested for Fc1ccc(OCc2nc3cc(C(F)(F)F)ccc3nc2-c2ccccc2)cc1
Resp: inactive

Req: Recorded test call requested for O=C(CI)Nc1ccc2oc(=O)c(C(=O)O)cc2c1
Resp: inactive

Next:
Req: Recorded test call requested for O=Cc1ccccc1CCn1c(=O)c2cc3c(=O)n(CCc4ccccc4C=O)c(=O)c3cc2c1=O
Resp: inactive

Req: Recorded test call requested for N#Cc1cc(C#N)c(N)nc1N
Resp: inactive
